Biological target: Prostaglandin G/H synthase 1 (Homo sapiens, UniProt P23219)
Sequence (P23219 whole entry): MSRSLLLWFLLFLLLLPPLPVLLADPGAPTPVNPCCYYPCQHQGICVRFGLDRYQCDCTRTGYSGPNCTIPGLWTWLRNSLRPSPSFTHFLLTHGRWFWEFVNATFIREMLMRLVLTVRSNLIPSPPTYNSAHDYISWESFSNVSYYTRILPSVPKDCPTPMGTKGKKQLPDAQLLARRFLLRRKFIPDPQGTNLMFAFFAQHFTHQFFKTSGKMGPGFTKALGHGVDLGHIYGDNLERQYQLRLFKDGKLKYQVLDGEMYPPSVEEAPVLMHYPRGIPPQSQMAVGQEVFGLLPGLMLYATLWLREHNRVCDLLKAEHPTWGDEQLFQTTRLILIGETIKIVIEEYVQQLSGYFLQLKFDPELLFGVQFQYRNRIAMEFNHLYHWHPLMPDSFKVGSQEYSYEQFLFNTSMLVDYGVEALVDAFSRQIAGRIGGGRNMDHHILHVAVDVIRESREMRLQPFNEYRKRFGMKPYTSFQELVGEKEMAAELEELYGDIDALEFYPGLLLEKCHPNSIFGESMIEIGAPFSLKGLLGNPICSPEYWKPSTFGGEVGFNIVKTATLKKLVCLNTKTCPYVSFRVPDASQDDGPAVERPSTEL
pIC50: −log10 of the molar value.
The threshold is inclusive: pIC50 of exactly 4 counts as met; values below receive not met.

compound.string: Clc1ccccc1-n1cc(CSc2nc3ccccc3o2)nn1
class.name: met

compound.string: Fc1ccc(-n2cc(CSc3nc4ccccc4o3)nn2)cc1
class.name: not met

compound.string: Cc1ccc(-n2cc(CSc3nc4ccccc4o3)nn2)cc1C
class.name: not met

* * *

Tested on: Rattus norvegicus
Assay: Antiinflammatory activity in Albino Wistar rat assessed as inhibition of carrageenan-induced hind paw edema at 0.05 mmol/kg, po treated 1 hr before carrageenan challenge by plethysmometer analysis
Type: functional, organism-based
Settings: TDE = time-dependent effect

compound.string: CC(C)(C)c1ccc(-n2cc(CSc3nc4ccccc4o3)nn2)cc1
inhibition: tde

compound.string: c1cncc(-n2cc(CSc3nc4ccccc4o3)nn2)c1
inhibition: tde

compound.string: Clc1ncccc1-n1cc(CSc2nc3ccccc3o2)nn1
inhibition: tde

compound.string: Brc1ccccc1-n1cc(CSc2nc3ccccc3o2)nn1
inhibition: tde

compound.string: Fc1ccc(-n2cc(CSc3nc4ccccc4o3)nn2)cc1
inhibition: tde

compound.string: c1ccc(-n2cc(CSc3nc4ccccc4o3)nn2)cc1
inhibition: tde

compound.string: Brc1ccc(-n2cc(CSc3nc4ccccc4o3)nn2)cc1
inhibition: tde

compound.string: COc1ccc(-n2cc(CSc3nc4ccccc4o3)nn2)cc1
inhibition: tde

compound.string: Clc1cccc(-n2cc(CSc3nc4ccccc4o3)nn2)c1
inhibition: tde

compound.string: Clc1ccc(-n2cc(CSc3nc4ccccc4o3)nn2)cc1
inhibition: tde

compound.string: Fc1ccccc1-n1cc(CSc2nc3ccccc3o2)nn1
inhibition: tde

compound.string: Clc1ccccc1-n1cc(CSc2nc3ccccc3o2)nn1
inhibition: tde
